Molecular target: Androgen Receptor (AR) (Homo sapiens)
Construct: endogenous in cells; host or cells: VCaP
Sequence (P10275 whole entry): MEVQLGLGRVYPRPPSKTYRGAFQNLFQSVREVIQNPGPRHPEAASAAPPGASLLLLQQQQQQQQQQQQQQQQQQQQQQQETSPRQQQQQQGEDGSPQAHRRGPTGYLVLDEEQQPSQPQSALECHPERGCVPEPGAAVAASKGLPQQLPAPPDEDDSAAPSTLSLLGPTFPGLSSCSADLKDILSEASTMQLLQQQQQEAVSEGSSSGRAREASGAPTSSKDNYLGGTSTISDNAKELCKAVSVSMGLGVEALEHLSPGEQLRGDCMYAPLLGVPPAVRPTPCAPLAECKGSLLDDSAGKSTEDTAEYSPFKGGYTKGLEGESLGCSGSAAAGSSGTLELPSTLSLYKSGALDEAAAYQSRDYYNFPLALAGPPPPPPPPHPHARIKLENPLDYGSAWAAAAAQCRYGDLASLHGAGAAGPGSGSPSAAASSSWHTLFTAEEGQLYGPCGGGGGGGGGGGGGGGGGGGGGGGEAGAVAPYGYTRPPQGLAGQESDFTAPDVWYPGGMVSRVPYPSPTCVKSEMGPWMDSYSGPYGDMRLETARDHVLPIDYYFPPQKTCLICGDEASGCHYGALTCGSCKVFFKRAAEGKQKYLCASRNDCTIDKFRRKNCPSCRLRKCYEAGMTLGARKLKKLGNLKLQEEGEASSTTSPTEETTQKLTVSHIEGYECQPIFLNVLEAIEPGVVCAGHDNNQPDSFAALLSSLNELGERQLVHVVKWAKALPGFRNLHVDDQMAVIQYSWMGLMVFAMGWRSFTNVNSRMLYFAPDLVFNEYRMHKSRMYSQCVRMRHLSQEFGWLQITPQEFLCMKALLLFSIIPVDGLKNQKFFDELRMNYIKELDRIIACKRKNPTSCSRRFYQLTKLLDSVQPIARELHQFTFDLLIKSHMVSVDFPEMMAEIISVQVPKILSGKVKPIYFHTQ
Test: AR immunofluorescence staining, high content imager, VCaP cells
Type: cell-based
Conditions: maximal AR degradation
Experimental: AR Immunofluorescence Staining of Cells for the High Content Imager was performed as follows: Following treatment of the cells with compound (using the central 60 wells of a 96-well plate), media was removed by aspiration, followed by addition of 50 μL per well of 4% paraformaldehyde (PFA) in PBS supplemented with 2 mM MgCl2 and 2 mM CaCl2. Fixed cells were incubated at RT for 15 minutes. […] The plates were covered with a clear plastic sealer and refrigerated in the dark until ready to analyze. […]
measuredMetric: Dmax

{"columns": ["molecule", "reportedResult"],
 "data": [
  ["N#Cc1ccc(O[C@H]2CC[C@H](NC(=O)c3ccc(N4CCC(CN5CCN(c6ccc(C(=O)NC7CCC(=O)NC7=O)cc6)CC5)CC4)nn3)CC2)cc1Cl (stereo partly drawn)", "≥ 70%"],
  ["Cc1cc(O[C@H]2C(C)(C)[C@H](NC(=O)c3ccc(N4CCO[C@@H](CN(C(C)C)[C@H]5C[C@H](Oc6ccc(C(=O)N[C@H]7CCC(=O)NC7=O)c(F)c6)C5)C4)cc3)C2(C)C)cc(C)c1C#N", "50 to 70%"],
  ["Cc1cc(O[C@H]2C(C)(C)[C@H](NC(=O)c3ccc(N4CCO[C@@H](CN5CCN(c6ccc(C(=O)N[C@H]7CCC(=O)NC7=O)c(F)c6)CC5)C4)cc3)C2(C)C)cc(C)c1C#N", "≥ 70%"],
  ["Cc1cc(O[C@H]2C(C)(C)[C@H](NC(=O)c3ccc(N4CC(CN5CC(c6ccc(C(=O)N[C@H]7CCC(=O)NC7=O)c(F)c6)C5)C4)cc3)C2(C)C)cc(C)c1C#N", "50 to 70%"],
  ["COc1cc(C(=O)NC2CCC(=O)NC2=O)ccc1O[C@H]1C[C@H](N(CC2CCN(c3ccc(C(=O)N[C@H]4C(C)(C)[C@H](Oc5cc(C)c(C#N)c(C)c5)C4(C)C)cc3)CC2)C(C)C)C1 (stereo partly drawn)", "50 to 70%"],
  ["COc1cc(O[C@H]2C(C)(C)[C@H](NC(=O)c3ccc(N4CCC(CN5CCN(c6cnc(C(=O)N[C@H]7CCC(=O)NC7=O)nc6)CC5)CC4)cc3)C2(C)C)ccc1C#N", "≥ 70%"],
  ["Cc1cc(O[C@H]2C(C)(C)[C@H](NC(=O)c3ccc(N4CCC(CN5CCN(c6ccc(C(=O)N[C@H]7CCC(=O)NC7=O)nc6)CC5)CC4)cc3)C2(C)C)cc(C)c1C#N", "≥ 70%"],
  ["COc1cc(O[C@H]2C(C)(C)[C@H](NC(=O)c3ccc(N4CCOC(CN(C(C)C)[C@H]5C[C@@H](Oc6ccc(F)c(C(=O)N[C@H]7CCC(=O)NC7=O)c6)C5)C4)cc3)C2(C)C)ccc1C#N (stereo partly drawn)", "50 to 70%"],
  ["COc1cc(C(=O)NC2CCC(=O)NC2=O)ccc1N1CCN(C[C@H]2CN(c3ccc(C(=O)N[C@H]4C(C)(C)[C@H](Oc5cc(C)c(C#N)c(C)c5)C4(C)C)cc3)CCO2)CC1 (stereo partly drawn)", "≥ 70%"],
  ["Cc1cc(O[C@H]2C(C)(C)[C@H](NC(=O)c3ccc(N4CCC(CN5CCOCCCCCOc6ccc(C(=O)NC7CCC(=O)NC7=O)cc6O[C@H]6C[C@H]5C6)CC4)cc3)C2(C)C)cc(C)c1C#N (stereo partly drawn)", "< 50%"],
  ["CC(C)N(CC1CCN(c2cnc(C(=O)N[C@H]3CC[C@H](Oc4ccc(C#N)c(Cl)c4)CC3)cn2)CC1)[C@H]1C[C@H](Oc2ccc(C(=O)NC3CCC(=O)NC3=O)nc2)C1 (stereo partly drawn)", "≥ 70%"],
  ["COc1cc(O[C@H]2C(C)(C)[C@H](NC(=O)c3ccc(N4CCO[C@@H](CN5CCN(c6ccc(C(=O)NC7CCC(=O)NC7=O)cc6OC)CC5)C4)cc3)C2(C)C)ccc1C#N (stereo partly drawn)", "≥ 70%"],
  ["Cc1cc(O[C@H]2C(C)(C)[C@H](NC(=O)c3ccc(N4CCC(CC5CCN(C67CC(C(=O)NC8CCC(=O)NC8=O)(C6)C7)CC5)CC4)cc3)C2(C)C)cc(C)c1C#N (mixture of isomers)", "< 50%"],
  ["Cc1cc(O[C@H]2C(C)(C)[C@H](NC(=O)c3ccc(N4CC5(C4)CN([C@H]4C[C@H](Oc6ccc(C(=O)N[C@H]7CCC(=O)NC7=O)c(F)c6)C4)CCO5)cc3)C2(C)C)cc(C)c1C#N", "50 to 70%"],
  ["COc1cc(O[C@H]2C(C)(C)[C@H](NC(=O)c3ccc(N4CCC(CN5CCN(c6ccc(C(=O)NC7CCC(=O)NC7=O)c(F)c6)CC5)CC4)cc3)C2(C)C)ccc1C#N (stereo partly drawn)", "≥ 70%"]
]}
